- run.description: Cytotoxicity against human EKVX cells assessed as growth inhibition at 10 uM after 48 hrs by coulter counter analysis
- Assay type: functional
- experimental.context: read-out: GI
parameter: inhibition of growth at 10 µM (%)
Kindly provide the numeric value in % only, without the unit symbol.

Study these solved cases before continuing.
Entry O=C(CSc1nc2ccccc2c(=O)n1CCc1ccccc1)Nc1ccc(F)cc1 has what inhibition of growth at 10 µM?
24

Entry COc1cc(OC(=O)CSc2nc3ccccc3c(=O)n2CCc2ccccc2)cc(OC)c1OC has what inhibition of growth at 10 µM?
36

Entry CCOC(=O)c1ccc(NC(=O)CSc2nc3ccccc3c(=O)n2CCc2ccccc2)cc1 has what inhibition of growth at 10 µM?
34

Entry O=C(CSc1nc2ccccc2c(=O)n1CCc1ccccc1)NCc1ccccc1 has what inhibition of growth at 10 µM?
25

Continuing:
Entry O=C(CSc1nc2ccccc2c(=O)n1CCc1ccccc1)Nc1ccccc1 has what inhibition of growth at 10 µM?
16

Entry COc1cc(NC(=O)CSc2nc3ccccc3c(=O)n2CCc2ccccc2)cc(OC)c1OC has what inhibition of growth at 10 µM?
35

Entry O=C(CSc1nc2ccccc2c(=O)n1CCc1ccccc1)Oc1ccc(Cl)cc1 has what inhibition of growth at 10 µM?
28

Entry CCOc1ccc(NC(=O)CSc2nc3ccccc3c(=O)n2CCc2ccccc2)cc1 has what inhibition of growth at 10 µM?
19

Entry O=C(CSc1nc2ccccc2c(=O)n1CCc1ccccc1)Nc1ccccc1C(=O)O has what inhibition of growth at 10 µM?
25

Entry Cc1ccc(NC(=O)CSc2nc3ccccc3c(=O)n2CCc2ccccc2)cc1 has what inhibition of growth at 10 µM?
29
